# System under test: wild type human POLγ (POLγA:WT) (Homo sapiens, UniProt P54098)
# Sequence (P54098 1-1239): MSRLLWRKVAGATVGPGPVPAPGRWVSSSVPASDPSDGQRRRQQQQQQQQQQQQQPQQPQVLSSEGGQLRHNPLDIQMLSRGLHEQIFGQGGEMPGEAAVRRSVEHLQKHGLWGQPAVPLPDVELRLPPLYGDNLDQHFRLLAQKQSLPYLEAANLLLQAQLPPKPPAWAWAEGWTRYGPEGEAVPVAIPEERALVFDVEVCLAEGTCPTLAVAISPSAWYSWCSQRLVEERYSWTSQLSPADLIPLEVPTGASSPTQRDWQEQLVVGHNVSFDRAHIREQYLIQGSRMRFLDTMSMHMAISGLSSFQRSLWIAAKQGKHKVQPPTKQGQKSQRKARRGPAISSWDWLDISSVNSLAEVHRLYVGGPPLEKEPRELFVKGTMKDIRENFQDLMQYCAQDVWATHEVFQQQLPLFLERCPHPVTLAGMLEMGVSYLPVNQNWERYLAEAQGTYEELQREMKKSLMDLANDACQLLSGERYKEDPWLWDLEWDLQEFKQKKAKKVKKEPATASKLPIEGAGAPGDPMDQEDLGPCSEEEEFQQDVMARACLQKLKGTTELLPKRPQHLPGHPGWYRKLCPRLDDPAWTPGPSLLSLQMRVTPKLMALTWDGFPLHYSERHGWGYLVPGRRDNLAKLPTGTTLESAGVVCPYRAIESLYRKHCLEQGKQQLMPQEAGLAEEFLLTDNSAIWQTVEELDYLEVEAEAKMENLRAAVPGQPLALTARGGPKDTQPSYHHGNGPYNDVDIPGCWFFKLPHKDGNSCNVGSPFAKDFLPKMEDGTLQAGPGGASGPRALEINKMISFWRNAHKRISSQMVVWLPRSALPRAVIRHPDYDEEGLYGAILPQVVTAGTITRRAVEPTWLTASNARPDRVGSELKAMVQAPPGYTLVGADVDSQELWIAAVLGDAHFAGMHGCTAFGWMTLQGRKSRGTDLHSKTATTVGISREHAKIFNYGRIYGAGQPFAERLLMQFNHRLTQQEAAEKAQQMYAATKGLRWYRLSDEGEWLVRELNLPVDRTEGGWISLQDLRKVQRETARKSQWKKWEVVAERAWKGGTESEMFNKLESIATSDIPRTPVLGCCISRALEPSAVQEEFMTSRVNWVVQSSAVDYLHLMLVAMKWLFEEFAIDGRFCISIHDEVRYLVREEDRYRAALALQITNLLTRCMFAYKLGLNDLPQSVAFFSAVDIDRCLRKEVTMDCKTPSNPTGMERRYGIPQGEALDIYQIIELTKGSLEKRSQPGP
# Sequence (Q9UHN1 1-485 partner): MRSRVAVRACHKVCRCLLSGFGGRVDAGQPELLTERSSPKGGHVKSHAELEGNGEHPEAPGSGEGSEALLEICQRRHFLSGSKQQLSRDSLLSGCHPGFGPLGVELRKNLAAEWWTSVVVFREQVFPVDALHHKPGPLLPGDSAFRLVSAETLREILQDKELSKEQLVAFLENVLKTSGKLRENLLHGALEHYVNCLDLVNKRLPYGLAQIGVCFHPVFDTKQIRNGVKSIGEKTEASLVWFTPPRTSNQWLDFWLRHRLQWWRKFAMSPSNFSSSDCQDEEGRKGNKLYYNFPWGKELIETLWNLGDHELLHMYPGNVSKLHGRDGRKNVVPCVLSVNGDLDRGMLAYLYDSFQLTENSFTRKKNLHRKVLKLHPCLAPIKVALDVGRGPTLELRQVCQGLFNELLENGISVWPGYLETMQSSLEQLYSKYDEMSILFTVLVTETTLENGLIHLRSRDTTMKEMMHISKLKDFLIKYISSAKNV
# Test summary: DNA polymerization assay, wild type POLγ
# Format: biochemical
# Assay conditions: 100 μM dNTP, read-out: WT AC50 (μM) at 100 μM
# Description: DNA Polymerization Assay to Monitor Effects on Human Wildtype POLγ and Four Disease-Causing Mutant Variants of Human POLγ. The ability of small molecules to stimulate the polymerase activity of POLγ was analyzed in a quantitative fluorescence SYBR Green I assay with fluorescence intensity (FI) readout. […] The assay was performed in the 384-well plate format. Upon addition of compounds, changes in double-stranded DNA synthesis activity can be monitored by following effects on fluorescent intensity. […]
Attribute measured: AC50 (µM)

>  <Mol smiles>
Cc1cc(S(=O)(=O)Nc2cnn(-c3ccccc3)n2)c(C)cc1Cl

>  <Uom>
µM

>  <AC50>
5

$$$$
>  <Mol smiles>
Cc1cc(S(=O)(=O)Nc2cccc(-c3cc(C4CC4)[nH]n3)c2)c(C)cc1Cl

>  <Uom>
µM

>  <AC50>
0.7

$$$$
>  <Mol smiles>
Cc1cc(S(=O)(=O)Nc2cccc(C(=O)N3CCc4cn[nH]c4C3)c2)c(C)cc1Cl

>  <Uom>
µM

>  <AC50>
1

$$$$

[P] Cc1cc(S(=O)(=O)Nc2ccc3ccn(C)c3c2)c(C)cc1Cl
[Q] Cc1cc(F)ccc1S(=O)(=O)Nc1csc(-c2ccccc2)n1
Q: Exercise: compare P and Q ; which one has the greater AC50? Record your answer as the label of the chosen record.
Result: P
(P: 4 µM, Q: 1 µM)

[I] Cc1cc(S(=O)(=O)Nc2csc(C(=O)N3CCC[C@@H]3C)n2)c(C)cc1Cl
[II] Cc1cc(S(=O)(=O)Nc2cc(F)cc(C(=O)N3CCC[C@H]3C)c2)c(C)cc1Cl
[III] Cc1cc(S(=O)(=O)Nc2cccc(-c3ncc(C4CC4)s3)c2)c(C)cc1Cl
[IV] Cc1ccc(C)c(S(=O)(=O)Nc2cccc(-c3nccs3)c2)c1
[V] Cc1cnc(-c2ccc(NS(=O)(=O)c3cc(C)c(Cl)cc3C)cc2)s1
Q: Order these by AC50, descending, and give the full ranking. Answer format: the labels, in the requested order.
Result: V, I, II, IV, III
(V: 6 µM, I: 3 µM, II: 1 µM, IV: 0.6 µM, III: 0.4 µM)

[A] Cc1cnc(-c2cccc(NS(=O)(=O)c3cc(C)c(Cl)cc3C)c2)s1
[B] Cc1cc(S(=O)(=O)Nc2cccc(-c3ncc(CN(C)C)s3)c2)c(C)cc1Cl
Q: Select the item whose AC50 value is smaller, choosing between A and B . Record your answer as the label of the chosen record.
Result: A

[I] Cc1cc(S(=O)(=O)Nc2nsc(-c3ccccc3)n2)c(C)cc1Cl
[II] Cc1cc(Cl)ccc1S(=O)(=O)Nc1csc(-c2ccccc2)n1
Q: Select the item whose AC50 value is smaller, choosing between I and II . Record your answer as the label of the chosen record.
Result: II

From: patent US20260138961A1
